Experiment: MELAS cybrid and Rieske KO viability enhancers – cell-based, MELAS cybrids, Rieske KO mouse fibroblasts, CellTiter-Glo, primary screen (AID 1508586);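 also: test concentration not given here; z relative to plate mean and SD of compound and empty wells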
Conditions: MELAS cybrid survival, low glucose, CellTiter-Glo 48 h; active compounds read high
Classify as follows. Reported z-score greater than or equal to -0.2: 1.0. Reported z-score below: 0.0.

{"Compound": "CC(C)=CCC[C@](C)(OC1OC(COC2OCC(O)C(O)C2O)C(O)C(O)C1O)C1CC[C@]2(C)[C@@H]1C(O)C[C@H]1[C@@]3(C)CCC(OC4OC(CO)C(O)C(O)C4O)C(C)(C)[C@@H]3CC[C@]12C (stereo not given in full)", "Classification": 0.0}

Exercise: Is z-score at least -0.2? Consider "C=CCc1cccc(C=NNC(=O)CN2CCN(Cc3ccccc3)CC2)c1O"
Solution: 1.0

Exercise: Given the entry "CC(C)n1cc(-c2cc(C(=O)N(C)Cc3cccnc3)c3cc(F)ccc3n2)cn1" , answer whether its z-score meets or surpasses -0.2.
Solution: 0.0

Exercise: Test whether the compound CCOC(=O)C(CCc1ccccc1)NC(C)C(=O)N1CCCC1C(=O)O (stereo not given) records z-score of -0.2 or higher.
Solution: 1.0

Exercise: Does the reported z-score for "CNC(=O)c1ccccc1Sc1ccc2c(C=Cc3ccccn3)n[nH]c2c1" fall at or above the -0.2 mark?
Solution: 1.0

Exercise: Check this compound for z-score at or above -0.2: NC[C@H]1O[C@H](OC2[C@@H](N)C[C@@H](N)[C@H](O)[C@H]2O[C@@H]2O[C@H](CO)[C@@H](O)[C@H]2O)[C@H](N)[C@@H](O)[C@@H]1O (stereo not given in full)
Solution: 0.0
